- Test system: UACC-257 melanoma
- ASSAY INFO: NCI-60 one-dose screen, 48 h (100 = growth as untreated, 0 = no growth, -100 = all killed)
- ASSAY SETUP: 10 µM unless noted
The panel holds about 83,000 compounds, 20% with a hit somewhere; the sample as a whole holds those more often.
QUANTITY KIND: growth (%)
Expressed in %, but write only the number.

- MOLECULE: "O=C1/C(=C/c2cccc(Br)c2)COc2ccc(O)c(O)c21"
  QUANTITY KIND: "growth"
  OBSERVED: 10.9
- MOLECULE: "O=C1CCc2c(sc3[nH]c(=S)n(-c4cc(C(F)(F)F)cc(C(F)(F)F)c4)c(=O)c23)C1"
  QUANTITY KIND: "growth"
  OBSERVED: -25.4
- MOLECULE: "Cc1c(-c2cnc3ccc(Cl)cc3c2C(=O)O)nnn1-c1ccc(Cl)cc1"
  QUANTITY KIND: "growth"
  OBSERVED: 95.9
- MOLECULE: "O=C(Nc1ccccc1C(F)(F)F)C1=NCCCCN1"
  QUANTITY KIND: "growth"
  OBSERVED: 99
- MOLECULE: "O=C1CC2C=CCN2C=C1NC(=O)c1ccccc1 (stereo unspecified)"
  QUANTITY KIND: "growth"
  OBSERVED: 99.8

Now for another entry.
Problem: Quick check: growth of COCCNC(=O)Cc1cc(-c2ccc(Cl)cc2)n(-c2ccccc2)c1C ?
Result: 95.6
